- PROTOCOL TEXT: yeast display, Sf9 membrane polyspecificity reagent, FACS + sequencing; frameworks hold sequencing errors
QUANTITY MEASURED: polyreactivity (PSR sort gate)

QVQLVESGGGLLQAGGSLRLSCAASGRIFVNYAMGWYRQAPGKERELVAVISRSGGGTNYADSVKGRFTISRDNAKNTVYLQMNSLKQEDTAVYYCAADSYYYPYDYWGQGTQVTVSS
high polyreactivity
QVQLVESGGGLVQAGGSLRLSCAASGSTFYDYVMGWYRQAPGKERELVAAITGDGTTDYADSVKGRFTISRDNAKNTVYLQMNSLKPEDTAVYYCNADISLDYDYWGQGTQVTVSS
low polyreactivity
QVQLVESGGGLVQAGGSLRLSCAASGSTFQYYAMGWYRQAPGKERELVAAISYGGSRTYYADSVKGRFTISRDNAKNNVYLQMNSLKPEDTAVYYCAKVKYRALAPYYYWGQGTQVTVSS
high polyreactivity
QVQLVESGGGLVQAGGSLRLSCAASGFTFRKYVMGWYRQAPGKERELVAGISRSGSRTYYADSVKGRFTISRDNAKNTVYLQMNSLKPEDTAVYYCAASRYGKNGKYHYWGQGTQVTVSS
high polyreactivity

Enquiry: Request the reported polyreactivity (PSR sort gate) associated with "QVQLVESGGGLVQAGGSLRLSCAASGSTFIYNALGWYRQAPGKERELVAAISSGGSTYYADSVKGRFTISRDNAKNSVYLQMNSLKPEDTAVYYCAAKGFPRSGYPYQAQHMYYWGQGTQVTVSS"
Return: low polyreactivity

Enquiry: Entry "QVQLVESGGGLVQAGGSLRLSCAASGFTFAVYAMGWYRQAPGKERELVAAISDSGGSTYYADSVKGRFTISRDNAKNTVYLQMNSLKPEDTAVYYCNRDWIVSGYYAYYEFDYWGQGTQVTVSS" please
Return: low polyreactivity

Enquiry: Further, for "QVHLVESGGGLVQAGGSLRLSCAASGSTFYNNAMGWYRQAPGKERELVAAINYSGGSTNYADSVKGRFTISRDNAKNTVYLQMNILKPEDTAVYYCATDLHWLVTKYGYWGQGTQVTVSS" ?
Return: low polyreactivity

Enquiry: Now give it for "QVQLVESGGGLVQAGRSLLLSCAASGRIFDGYAKGRYRQAPGKERELVAAINSNDGTTYYADSVKGRFTISRDKAKHTVYVQMNSLKPEDTAVYYCAKVSYNAWSYGPQMDYWGQGTQVTVSS" too.
Return: low polyreactivity

Enquiry: Record: "QVQLVESGGGLVQEGGSLRLICSASGIILGPYAMGWYRQAPGKESELVSAISWRGGSTYYADSVKGRFTISRDNAKNTVYLQMNSLKPEDTAVYYCATASRTSRTGWAVYYWGQGTQVTVSS"
Return: high polyreactivity

Enquiry: Now give it for "QVQLVESGGGLVHAGGSLRLSCAASGFIFAYYAMGWYRQAPGKERELVAAIDSAGRTTYADSVKGRFTISRDNAKNSVYLQMNSLKPEDTAVYYCAKFTPSVYKLSLQQGYDYWGQGNQVTVSS" too.
Return: high polyreactivity

Enquiry: Item: "QVQLVESGGGLVQAGGSLRLSSAASGSTFTPYVMGWYRQAPGKERELVAAISKRGGSTYYADSVKGRFTISRDNANNTVYLQMNSLKPEDTAVYYCAAVQPAWGNGYWGQGTQVTVSS"
Return: high polyreactivity

Enquiry: Follow-up item: "QVQLGESGGGLVQAGGSLRLSCAASGSIFAYYAMGWYRQAPGKERELVAGISGSGGSTYYADSVKGRFTISRDNAKNTVYLQMNSLKPEDTAVYYCAVDGRRNGDVRYNYWGQGTQVTVSS"
Return: high polyreactivity

Enquiry: Same thing, different sequence: "QVQLVESGGGLVQAGGSLRLSCAASGRIFVYYAMGGYRQAPGKERELVATISTGGSTYYADSVKGRFTISRDNAKNTVYLQMNSLKPEDTAVYYCASDNVNLYLAYYYKGDYWGQGTQVTVSS"
Return: low polyreactivity

Enquiry: Lookup "QVQLVESGGGLVQAGGSLRLSCAASGFTFSRNAMGWYRQAPGKERELVAAIDSGGSTDYADSVKGRFTISRANAKKTVYLQMNSLKPEDTAVYYCAKASSATRYVQLRQDYDYWGQGTQVTVSS"
Return: low polyreactivity

Enquiry: # iterate: "QVQLVESGGGLVQAGGSLRLSCAASGIIFSANAMGWYRQAPGKERELVAAISRDGSTYYADSVKGRFTISRDNAKNTVYLQMNSLKPEDTAVYYCAVDPIYYWRPGYDYWGQGTQVTVSS"
Return: low polyreactivity

* * *

- PROTOCOL TEXT: yeast display, Sf9 membrane polyspecificity reagent, FACS + sequencing; frameworks hold sequencing errors
QUANTITY MEASURED: polyreactivity (PSR sort gate)

QVQLVESGGGLVQAGGSLRLSCAASGSIFADYAMGWYRQAPGKERELVAAISYNGDSTYYADSVKGRFTISRDNAKNTVYLQMNSLKPEDTAVYYCNAAARRYTSVFYTSGYTFDYWGQGTQVTVSS
low polyreactivity
QVQLEESGGGLVQAGGSLRLSCAASGYTFSHYAIGWYRQAPGKERELVAGITWSGGSTYYADSVKGRFTISRDYAKNTVYLQMNSLKPEDTSVYYCAAKYYWYYSYSGIPLFDYWGQGTQVTVSS
low polyreactivity
QVQLVESGGGLVQAGGSLRLSCAASGRTFLSYMGWYRQAPGKERELVAISRSGTSTYYADSVKGRFTISRDNAKNTVYLQMNSLKPEDTAVYYCAATRRYPQYRGYDYWGQGTQVTVSS
high polyreactivity
QVQLVESGGGLVQAGGSLRLSCAASGFTFGYNAMGWYRQAPGKERELVAVITQSGGRTYYADSVKGRFTISRDNAKNTVYLQMISLKPEDTAVYYCNKVPRVYGYVKGSDYWGQGTQVTVSS
high polyreactivity
QDQLVESGRGLDQAGGSLRLICAASGRIFDRYALGWYRQAPGTERELVAAISWNTGSTYYADSVKGRFTISRDNAKNTVYLQMNSLKPEDTAVYYCAAAVRPYKRQDDYWGQGTQVTVSS
high polyreactivity

Enquiry: Entry "QVQLVESGGGIVQAGGSLRLSCAASYYDMGWYRQAHGKERELVASISSGGSTNYADSVKGRFTISRDNAKNTVYLQMNSLKPEVTAVYYCAAVVADGVWVKIADEYWGQGTQVTVSS" has what polyreactivity (PSR sort gate)?
Return: low polyreactivity

Enquiry: And the next one, "HDQLVESAAGLVQAGGSLRLSCAASVLTFYQNALGWYRQAAGKEMEFVAAISRRGGSTYYADSVKGRFTISRDNAKNTVYLQMNSLKPEDTAVYYCAADYKRKSDGDYWGQGTQVTVSS" ?
Return: high polyreactivity

Enquiry: Next sequence: "QVHLVETGGGLVQAGGSLRLSCAASGSIFSSYHMVWYRQAPGKERELVASISSGGSTNYADSVKGRFTISRDNAKNTVYLHMNSLNPEVTAVYYCNVDLYNWRGDSTGYDYWGQGTQVTVSS"
Return: low polyreactivity

Enquiry: Next record, please: "QVQLVDSAAALVQAGGSQRLTCAASGLIFYYSVMGSYRQAPGKERELVARISTSGGSTYYADSVKGRFTISRDNAKNTVYIQMNSLKPEDTAVYYCAARGYRQYGWDCYCGQGTQVTVSS"
Return: low polyreactivity

Enquiry: Next record, please: "QDQLVESGGGLVQAGGSLRLICAASGSIFSKKAMGLYRQAPGKERELVAAISASGASTYYADSVKGRFTISRDNEKNTVYLQMNSLKPEDTSVYYCNADVSGVSSYGLSYEFYYWGQGTQVTVSS"
Return: low polyreactivity

Enquiry: Also need "QVQLVESGGGLVQAGGSLRLSCAASGITFYVYAMGWSRQAPGKEREFVAAISTRDGTTYAYSVKGRFTISRDNAKNTVYLQMNSLKPEDTAVYYCAAAYYYDGQQGDFDYWGQGSQVTVSS" , thanks.
Return: low polyreactivity

Enquiry: Ok, now "QVQLVESGGGLVQAGGSLRLSCAASGSIFKYYTIGWYRQAPGKERELVAAISWSGGRTYYADSVKGRFTISRDIAKNTVYLQMNSLKPEDTAVYYCAKYVSYSRTLYDYWGQGTKVTVSS"
Return: high polyreactivity

Enquiry: Now give it for "QVQLVESGGGLVQAGGSLRLSCAASGFTFGPYAMGWYRQAPGKERELVAAIRGSGSSTYYADSVKGRFTISRDNAKNTVYLQMNSLKPEDTAVYYCAAKRRYGTDGYWGQGTQVTVSS" too.
Return: high polyreactivity

Enquiry: Param item: "QVQLVVSGGGLVQAGGSLSLSWDASGRTFARYTMGWYRQAPGKERELVASITRGGSPYYADSVKGRFTISRDNAKNYVYLQMNSLKAEDSSVFYCAARFPQHNYWAMDYCGQGTQVTVSS"
Return: high polyreactivity

Enquiry: Please do the same for "QVQLVESGGGLVQAGGSLRLSCAASGIIFGYNVMGWYRQAPGKERELVAAIRYSGGSKYYADSVKGRFTISRDNAKNTVYLQMNSLKPEDTAVYYCAKAYRAAPRESYDYWGQGTQVTVSS" as well.
Return: high polyreactivity

Enquiry: # iterate: "QVQLVESGGGLVQAGGSLRLSCAASGSTFIGYAMGWYRQAPGKDRELVAAITRSGGRTYYADSVKGRFTISRDNAKNTVYLQMNSLKPEVSAVYYCAARVKGQWNTYDYWGQGTQVTVSS"
Return: high polyreactivity

Enquiry: Please give the result for "QVQLVESGGGLDQARGSLRLSCAASGLTFASNAMGWYRQAPGKERELVAAISWSDGSTYYADSVKGRFTISRDNAKNTVYLQMNSLKPEDTAVYYCAAEPPGFRTSRVGYWGQGTQVTVSS" too.
Return: low polyreactivity

Enquiry: Again, but for "QVQLQESGGGLVQAGGCLRLSCAASGTIFDPDYMGWYHQAPGKERELVASISLGRITYYADSVKGRFTINRDNAKNTVYLQMNSLKPEDTAVYYCAVRVETIYYYSYWGQGTQVTVSS"
Return: high polyreactivity

Enquiry: Moving on to the next sequence: "QVQLVESGGALVQAGGSLRLSCAASGSIFFSYAMGWYRQAPGKERELVAAISTSGGNTYYADSVKGRFTISRDNAKHTVYLQMNSLKPEDTAVYYCNDRGSYPPYRSYGYWGQGTQVTVSS"
Return: low polyreactivity

Enquiry: Now consider "QVQLVESGGGLVQAGGSLRLSCAASGRNPMGWYRQAPGKDRELVASISRTGGSTYYADSVKGRFTISRDNAKNTDYLQMNSLKPEDTAVYYCNYFRRPPMYYWGQGTQVTVSS" .
Return: high polyreactivity

Enquiry: Another sequence: "QVQLVESGGGLVQAGGSLRLSCAASGSIFQFSAKGWYRQAPGKERELVAGINTSGGSTYYADSVKGRFTISRDNAKNTVYLQMHSLKPEDTAVYYCMARSRYDTGPQRGYDYWGQGTQVTVSS"
Return: low polyreactivity
